# TEST SYSTEM: UniProtKB P19111
# Sequence (P19111 20-506 limits assumed): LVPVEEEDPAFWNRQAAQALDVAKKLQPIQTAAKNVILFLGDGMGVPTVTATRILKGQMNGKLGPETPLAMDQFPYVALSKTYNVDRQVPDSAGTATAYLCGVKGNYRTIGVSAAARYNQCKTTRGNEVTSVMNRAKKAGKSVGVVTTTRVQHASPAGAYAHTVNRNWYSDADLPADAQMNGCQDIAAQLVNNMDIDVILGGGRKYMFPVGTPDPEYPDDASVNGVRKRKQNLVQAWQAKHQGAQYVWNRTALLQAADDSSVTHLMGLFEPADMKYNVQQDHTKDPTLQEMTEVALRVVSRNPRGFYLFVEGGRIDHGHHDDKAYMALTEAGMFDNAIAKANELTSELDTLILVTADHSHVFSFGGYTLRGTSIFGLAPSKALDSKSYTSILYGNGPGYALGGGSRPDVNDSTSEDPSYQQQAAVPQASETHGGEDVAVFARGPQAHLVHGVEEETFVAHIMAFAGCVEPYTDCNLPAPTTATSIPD
# ASSAY EXPLANATION: AP fluorometric assay
# Assay type: biochemical
# DETAILS: 0.800 μM DiFMUP, pH 6.5, 37 °C, 60 min; ± 95% confidence interval
EXPERIMENTAL READOUT: pIC50
# pIC50: negative log10 of molar concentration; output just the value

## Input Find pIC50 (UniProtKB P19111) for the entry [Na+].[Na+].[Na+].[O]=[V]([O-])([O-])[O-] [Na3VO4, sodium orthovanadate]
## Output 5.21

---

# TEST SYSTEM: UniProt:P19111
# ASSAY EXPLANATION: AP fluorometric assay
# Assay type: biochemical
# DETAILS: 0.200 μM DiFMUP, pH 6.5, 37 °C, 60 min; ± 95% confidence interval
EXPERIMENTAL READOUT: pIC50
# pIC50: negative log10 of molar concentration; output just the value

## Input Please report the recorded pIC50 for [Na+].[Na+].[Na+].[O]=[V]([O-])([O-])[O-] [Na3VO4, sodium orthovanadate] .
## Output 5.64
